- System: BDF1 mice, B16 melanoma ip, median survival T/C
- protocol.details: NCI In Vivo Anticancer Drug Screen. Data for tumor model B16 Melanoma (intraperitoneal) in B6D2F1 (BDF1) mice
- test.parameters: endpoint: median survival time; dose: 75.0 mg/kg/injection; schedule: Q01DX009 (ip); vehicle: Klucel (hydroxypropylcellulose) (HPC); higher = longer survival
Toxic doses and inconclusive results are not listed.
metric.name: T/C

1. [O-]c1c[n+](C23CCC(c4ccccc42)c2ccccc23)no1 :: 102 % of control
2. NC(=O)c1ccccc1OCc1ccccc1 :: 100 % of control
3. COCC(=O)CC(C)=O :: 122 % of control
4. O=C(N=C1C=CC(=NC(=O)OCc2ccccc2)C=C1)OCc1ccccc1 :: 98 % of control

-- ask Complete the entry with T/C for `Cc1c(Cl)cccc1NC(=O)c1cccc([N+](=O)[O-])c1`
-- reply 95 % of control
